Entries and their pIC50 values follow.
Test system: pJNK in HCT-116 cells
Experiment: Phospho-JNK (Thr183/Tyr185) Meso Scale ELISA assay, TNFα-stimulated HCT-116 cells
Type: cell-based
Conditions: Homo sapiens, read-out: mean HCT-116 pJNK ELISA IC50 (Col. B)
pIC50: −log10 of the molar value. Structures can show the parent of a compound that is named as a salt.

Recorded results for 5 compounds are shown here.
INSERT INTO results (compound, test_target, observed_value) VALUES
  ('Nc1ncc(-c2cnn([C@@H]3C[C@H]4CC[C@@H](C3)N4C=O)c2)c2cc(-c3cccc4cnsc34)oc12 [Example 326]', 'pJNK in HCT-116 cells', '> 7.00'),
  ('CC(C)(C)OC(=O)N1[C@@H]2CC[C@H]1C[C@H](n1cc(-c3cnc(N)c4oc(-c5cccc6cnsc56)cc34)cn1)C2 [Example 301]', 'pJNK in HCT-116 cells', '6.00 to 7.00'),
  ('CC(=O)N1CCC(n2cc(-c3cnc(N)c4oc(-c5c[nH]c6cnccc56)cc34)cn2)CC1 [Example 86]', 'pJNK in HCT-116 cells', '5.00 to 6.00'),
  ('CC(C)n1cc(-c2cnc(N)c3oc(-c4cccc5cnccc45)cc23)cn1 [Example 60]', 'pJNK in HCT-116 cells', '6.00 to 7.00'),
  ('Nc1ncc(-c2cnn(C3CCN(C(=O)CCc4ccccc4)CC3)c2)c2cc(-c3csc4cnccc34)oc12 [Example 331]', 'pJNK in HCT-116 cells', '6.00 to 7.00');

Q) Lab note: need pIC50 for CC(=O)N1CCC(n2cc(-c3cnc(N)c4oc(-c5cccc([N+](=O)[O-])c5C)cc34)cn2)CC1 [Example 218] on pJNK in HCT-116 cells, anyone have it?
A) 6.00 to 7.00

Q) Lab note: need pIC50 for COCC(=O)N1CCC(n2cc(-c3cnc(N)c4oc(-c5cccc6cnccc56)cc34)cn2)CC1 [Example 50] on pJNK in HCT-116 cells, anyone have it?
A) 6.00 to 7.00

Q) Lab note: need pIC50 for CC(=O)N1CCC(n2cc(-c3cnc(N)c4oc(-c5ccc6[nH]ncc6c5)cc34)cn2)CC1 [Example 94] on pJNK in HCT-116 cells, anyone have it?
A) 6.00 to 7.00

Q) Lab note: need pIC50 for CC(=O)N1CCC(n2cc(-c3cnc(N)c4oc(-c5c(C)n[nH]c5C)cc34)cn2)CC1 [Example 180] on pJNK in HCT-116 cells, anyone have it?
A) 5.00 to 6.00

Q) Lab note: need pIC50 for Nc1ncc(-c2cnn(C3CCNCC3)c2)c2cc(-c3ccc4[nH][nH]c(=O)c4c3)oc12 [Example 55, trifluoroacetic acid salt] on pJNK in HCT-116 cells, anyone have it?
A) < 5.00

---

Entries and their pIC50 values follow.
Molecular target: TAK1-TAB1 fusion protein (Homo sapiens, UniProt O43318)
Construct: purchased Carna
Sequence (O43318 with tags, fused parts or gaps limits assumed): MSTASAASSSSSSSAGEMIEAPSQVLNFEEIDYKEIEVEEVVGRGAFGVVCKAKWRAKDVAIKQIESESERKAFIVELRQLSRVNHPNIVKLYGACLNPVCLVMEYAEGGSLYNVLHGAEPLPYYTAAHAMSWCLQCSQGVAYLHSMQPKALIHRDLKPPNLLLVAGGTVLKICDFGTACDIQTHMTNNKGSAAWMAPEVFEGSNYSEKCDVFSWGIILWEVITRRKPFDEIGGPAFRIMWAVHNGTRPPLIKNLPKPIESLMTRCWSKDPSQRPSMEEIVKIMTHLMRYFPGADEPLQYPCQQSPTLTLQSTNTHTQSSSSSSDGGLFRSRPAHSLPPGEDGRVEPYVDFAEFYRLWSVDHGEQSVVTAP
Assay: TAK1 biochemical assay (AlphaScreen, GST-MAP2K7 substrate)
Settings: TAK1-TAB1 fusion protein, GST-MAP2K7 substrate; read-out: mean TAK1 IC50 (Col. A)
pIC50: −log10 of the molar value. Where a name gives a salt, the structure may show the parent alone.

Recorded results for 4 compounds are shown here.
INSERT INTO assay_data (compound, observed_value) VALUES
  ('CCn1cc(-c2cnc(N)c3oc(-c4cccc5cnccc45)cc23)cn1', '5.00 to 6.00'),
  ('COCC(=O)N1CCC(n2cc(-c3cnc(N)c4oc(-c5cccc6cnccc56)cc34)cn2)CC1', '6.00 to 7.00'),
  ('Nc1ncc(-c2cnn(C3CCNCC3)c2)c2cc(-c3cccc4ccccc34)oc12', '5.00 to 6.00'),
  ('Nc1ncc(-c2cnn([C@H]3CC[C@H](O)CC3)c2)c2cc(-c3cncc4cnsc34)oc12 [Example 267, Diformate Salt]', '6.00 to 7.00');

Q) # query: pIC50 of entry CC(=O)N1CCC(n2cc(-c3cnc(N)c4oc(-c5cnc6cnccn56)cc34)cn2)CC1 [Example 274, trifluoroacetic acid salt]
A) 5.00 to 6.00
